- TEST SYSTEM: Serine/threonine-protein kinase PLK1 (Homo sapiens)
- MEASUREMENT CONDITIONS: at 1 µM
Reported values of residual activity for individual entries
RECORDED ENDPOINT: residual activity (%)

> print(dat)
                                    compound  unit.string  meas.value
 1  Nc1ncnc2c1c(-c1ccc(Oc3ccccc3)cc1)cn2C1CCCC1            %          83
 2                   Nc1ncnc2c1cnn2-c1ccccc1            %         100
 3  NCCNc1ncc(C(N)=O)c(Nc2cccc(C(F)(F)F)c2)n1            %         100
 4          O=c1cc(N2CCOCC2)oc2c1ccc1ccccc12            %          56
 5      COc1ccc(-c2cnc3c(-c4ccsc4)cnn3c2)cc1            %          95
 6  O=C(NC(NC(=S)Nc1ccc(F)c([N+](=O)[O-])c1)C(Cl)(Cl)Cl)C(c1ccccc1)c1ccccc1 (configuration not stated)            %         102
 7  O=C1NC(=O)C(c2cn(CCCn3ccnc3)c3ccccc23)=C1Nc1ccccc1            %          76
 8    N#Cc1c(NC(=O)c2cccc3ccccc23)sc2c1CCCC2            %          94
 9        CCCCc1c(-c2ccc(O)cc2)[nH]c2nccnc12            %          82
10    COc1ccc(Cl)cc1NC(=O)Nc1cc(C)nc2ccccc12            %          95
11  O=C1NC(=O)C(c2cn(CCCO)c3ncccc23)=C1c1cnccn1            %          87
12  O=C1Cc2c([nH]c3ccc([N+](=O)[O-])cc23)-c2ccccc2N1            %         105
13          O=C(c1ccccc1)c1ccc(N2CCOCC2)cc1O            %          93
14  CC(C)(C)n1nc(Cc2cccc3ccccc23)c2c(N)ncnc21            %          99
15  COc1cc2c(cc1OC)-c1n[nH]c(Nc3cccc(F)c3)c1C2            %          65
16    O=C1Cc2c([nH]c3ccc(Br)cc23)-c2ccccc2N1            %          76
17         O=C(O)/C=C/c1cc(Br)c(Br)c(Br)c1Br            %          73
18  O=C1Nc2ccc(Cl)cc2/C1=C/c1cc(Cl)c(O)c(Cl)c1            %          83
19   COc1ccc(COc2ccc(Cc3cnc(N)nc3N)cc2OC)cc1            %          80
20         COc1cc2ncnc(Nc3cccc(Cl)c3)c2cc1OC            %         112
21  O=c1c(-c2ccc(F)cc2)c(-c2ccncc2)[nH]n1-c1ccc(Cl)cc1            %          77
22  N#C/C(=C1/Nc2ccccc2S1)c1ccnc(NCCc2cccnc2)n1            %          83

All figures here come from ChEMBL document CHEMBL2218924.
